Would you mind telling me the reported pIC50 of each entry?
Target: CBL-B (Homo sapiens)
Construct: GST
Sequence (Q13191 whole entry): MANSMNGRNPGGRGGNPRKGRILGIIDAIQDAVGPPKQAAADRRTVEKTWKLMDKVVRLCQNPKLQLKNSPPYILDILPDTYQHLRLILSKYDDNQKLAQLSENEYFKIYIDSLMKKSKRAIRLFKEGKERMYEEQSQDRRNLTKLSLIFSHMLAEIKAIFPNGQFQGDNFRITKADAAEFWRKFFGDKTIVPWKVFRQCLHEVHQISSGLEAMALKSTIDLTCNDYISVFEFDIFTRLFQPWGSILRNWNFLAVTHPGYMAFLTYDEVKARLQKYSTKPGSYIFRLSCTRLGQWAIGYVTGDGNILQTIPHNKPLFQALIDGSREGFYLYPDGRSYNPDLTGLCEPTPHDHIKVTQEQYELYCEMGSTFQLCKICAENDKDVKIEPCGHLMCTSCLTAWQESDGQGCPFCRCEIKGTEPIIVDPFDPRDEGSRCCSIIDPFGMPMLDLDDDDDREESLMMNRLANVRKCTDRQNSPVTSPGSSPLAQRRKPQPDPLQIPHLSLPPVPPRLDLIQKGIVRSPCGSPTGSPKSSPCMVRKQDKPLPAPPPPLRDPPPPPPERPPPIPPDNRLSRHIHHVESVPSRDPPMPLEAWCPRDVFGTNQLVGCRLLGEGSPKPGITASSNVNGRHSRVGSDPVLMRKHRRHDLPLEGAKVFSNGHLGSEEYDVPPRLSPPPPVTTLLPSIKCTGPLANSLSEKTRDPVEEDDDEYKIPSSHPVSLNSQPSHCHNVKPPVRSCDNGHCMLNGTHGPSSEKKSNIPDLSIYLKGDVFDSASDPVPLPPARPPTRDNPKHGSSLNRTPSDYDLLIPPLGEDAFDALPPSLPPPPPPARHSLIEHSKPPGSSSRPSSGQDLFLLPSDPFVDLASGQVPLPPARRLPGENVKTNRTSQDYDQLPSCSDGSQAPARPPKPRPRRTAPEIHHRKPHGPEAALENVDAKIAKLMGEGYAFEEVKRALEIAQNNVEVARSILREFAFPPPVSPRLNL
Assay: CBL-B TR-FRET IC50 screening (E1/E2 ubiquitination, Biotin-Ubiquitin, Anti GST-Tb donor / Streptavidin-d2 acceptor)
Type: biochemical
Conditions: second part of Table 2 (head 'Patent Cmpd No / Updated Activity'); same CBL-B TR-FRET IC50 bins A-F; read-out: Updated Activity
pIC50: −log10 of the molar value.

### Prompt Consider the compound CC(=O)N1CCC(c2cc(C(F)(F)F)c3cn(-c4cccc([C@H](c5nncn5C)C5CCC5)c4)c(=O)n3c2)CC1 [Compound 398] and give its recorded pIC50.
### Response > 7.00

### Prompt Answer with the recorded pIC50 for the compound listed here: C[C@H](c1cc(C(F)(F)F)c2cn(-c3cccc([C@H](c4nncn4C)C4CCC4)c3)c(=O)n2c1)N1CCC[C@@H](C(F)(F)F)C1 (single isomer, unassigned) [Compound 613]
### Response > 7.00

### Prompt Fill in pIC50 for record CNC(=O)CCc1cc([C@@H](c2nncn2C)C2CCC2)cc(-n2cc3c(C(F)(F)F)cccn3c2=O)c1 (single isomer, unassigned) [Compound 558]
### Response < 5.00
